Data provenance is patent US11702475B2.

Please respond with reported First Scan Tm for every item in the list.
- PROTOCOL NOTES: Thermal stability of cysteine-NEM conjugates by DSC
- Assay type: physicochemical
- TEST PARAMETERS: DSC 25-100 °C, 1 °C per minute
Please state the figure in °C; there is no need to write the unit.

For reference, reported First Scan Tm for K40C: cysteine variant of P54AR4-83v2 (SEQ ID NOS: 199 and 237); NEM and VC-MMAF conjugates (conjugate, NEM or vcMMAF conjugate; EGFR binding FN3 domain, NEM and VC-MMAF conjugates) MLPAPKNLVVSEVTEDSARLSWDDPWAFYESFLIQYQESECVGEAIVLTVPGSERSYDLTGLKPGTEYTVSIYGVHNVYKDTNMRGLPLSAIFTT stands at 70

The value of First Scan Tm measured for the molecule V8C: cysteine variant of P54AR4-83v2 (SEQ ID NOS: 189 and 227); NEM and VC-MMAF conjugates (conjugate, NEM or vcMMAF conjugate; EGFR binding FN3 domain, NEM and VC-MMAF conjugates) MLPAPKNLCVSEVTEDSARLSWDDPWAFYESFLIQYQESEKVGEAIVLTVPGSERSYDLTGLKPGTEYTVSIYGVHNVYKDTNMRGLPLSAIFTT turned out to be 69

The molecule listed as 83v2His6-cys: P54AR4-83v2 parent with C-terminal cysteine (SEQ ID NOs: 217 and 255); NEM and vcMMAF conjugates (conjugate, His6 tag, C-terminal Cys; NEM or vcMMAF conjugate; EGFR binding FN3 domain, NEM and vcMMAF conjugates) MLPAPKNLVVSEVTEDSARLSWDDPWAFYESFLIQYQESEKVGEAIVLTVPGSERSYDLTGLKPGTEYTVSIYGVHNVYKDTNMRGLPLSAIFTTGGHHHHHHC shows First Scan Tm equal to 71

Lab book: First Scan Tm of Y72C: cysteine variant of P54AR4-83v2; NEM and VC-MMAF conjugates (conjugate, left off: small tags and cut ends, cysteine variant of P54AR4-83v2; NEM and VC-MMAF conjugates) LPAPKNLVVSEVTEDSARLSWDDPWAFYESFLIQYQESEKVGEAIVLTVPGSERSYDLTGLKPGTEYTVSICGVHNVYKDTNMRGLPLSAIFTT noted as 70

// First Scan Tm lookup, molecule = N6C: cysteine variant of P54AR4-83v2 (printed SEQ ID NOS: 210 and 248); NEM and VC-MMAF conjugates (conjugate, NEM or vcMMAF conjugate; EGFR binding FN3 domain, NEM and VC-MMAF conjugates) MLPAPKCLVVSEVTEDSARLSWDDPWAFYESFLIQYQESEKVGEAIVLTVPGSERSYDLTGLKPGTEYTVSIYGVHNVYKDTNMRGLPLSAIFTT , result: 71
